Biological target: GST-β5cyto (GST fusion protein of the integrin β5 cytoplasmic domain) (UniProt P18084)
Sequence (P18084 other isoform, or with tags, fused parts or gaps): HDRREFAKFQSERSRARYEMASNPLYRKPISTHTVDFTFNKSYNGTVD
Experiment: phage colonies recovered from β5-GST-coated wells divided by those from GST wells
Hi there, I'd appreciate the recorded β5/GST Ratio for every entry that follows.
Answers are plain numbers.

Consider the following illustrative entries.
                                     binder  measured_quantity  reported_measurement
0  CEPYWDGWFC [phage displaying … (SEQ ID NO:106)]       β5/GST Ratio                   3.1
1  KQFSYRYLL [phage displaying … (SEQ ID NO:111)]       β5/GST Ratio                   4.5
2  CYIWPDSGLC [phage displaying … (SEQ ID NO:105)]       β5/GST Ratio                   5.2
3  CWDQNYLDDC [phage displaying … (SEQ ID NO:109)]       β5/GST Ratio                   1.5
4  SDWYYPWSW [phage displaying … (SEQ ID NO:113), selected on β5]       β5/GST Ratio                   2.4
5  DEEGYYMMR [phage displaying … (SEQ ID NO:110)]       β5/GST Ratio                  11.5

Consider the record given below.
GET /values?readout=β5/GST Ratio&item= VVISYSMPD [phage displaying … (SEQ ID NO:112)]
3.8
